Origin of values: ChEMBL document CHEMBL1132682

Target chain: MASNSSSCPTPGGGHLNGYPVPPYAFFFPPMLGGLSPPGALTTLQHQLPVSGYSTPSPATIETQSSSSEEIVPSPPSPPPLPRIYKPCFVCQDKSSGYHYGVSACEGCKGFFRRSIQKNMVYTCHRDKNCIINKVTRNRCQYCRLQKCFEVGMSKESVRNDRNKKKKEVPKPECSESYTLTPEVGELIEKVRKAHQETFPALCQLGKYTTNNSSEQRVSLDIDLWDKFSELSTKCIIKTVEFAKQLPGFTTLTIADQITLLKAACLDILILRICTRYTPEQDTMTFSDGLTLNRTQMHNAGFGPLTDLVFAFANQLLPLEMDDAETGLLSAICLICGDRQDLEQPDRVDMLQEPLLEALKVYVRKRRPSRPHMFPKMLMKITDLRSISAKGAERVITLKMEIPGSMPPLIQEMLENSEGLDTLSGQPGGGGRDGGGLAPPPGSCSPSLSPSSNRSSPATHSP
experimental.endpoint: Kd (nM)
Reply with just the number (in nM).

Below are worked cases with known answers.
• Cc1cccc(C2=CCC(C)(C)c3ccc(C#Cc4ccc(C(=O)O)cc4)cc32)c1 = 276
• Cc1ccc(C2=CCC(C)(C)c3ccc(C#Cc4ccc(C(=O)O)cc4)cc32)cc1 = 16
• CC1(C)CC=C(c2ccc(Cl)cc2)c2cc(C#Cc3ccc(C(=O)O)cc3)ccc21 = 58
• CC1(C)CC=C(c2ccc(F)cc2)c2cc(C#Cc3ccc(C(=O)O)cc3)ccc21 = 85
• CC(C)c1ccc(C2=CCC(C)(C)c3ccc(C#Cc4ccc(C(=O)O)cc4)cc32)cc1 = 90
• Cc1ccccc1C1=CCC(C)(C)c2ccc(C#Cc3ccc(C(=O)O)cc3)cc21 = 103
• CC1(C)CC=C(c2ccc(C#N)cc2)c2cc(C#Cc3ccc(C(=O)O)cc3)ccc21 = 38
• COc1ccc(C2=CCC(C)(C)c3ccc(C#Cc4ccc(C(=O)O)cc4)cc32)cc1 = 60
• Cc1cc(C)cc(C2=CCC(C)(C)c3ccc(C#Cc4ccc(C(=O)O)cc4)cc32)c1 = 1050

Turning now to a further compound:
Record request: Kd value, item CC1(C)CC=C(c2cccc(O)c2)c2cc(C#Cc3ccc(C(=O)O)cc3)ccc21
919

---

Quick record: Kd, Retinoic acid receptor gamma (Homo sapiens, UniProt P13631).
Give the value, in units of nM, as a plain number.

Consider the worked cases shown below.
* Cc1cccc(C2=CCC(C)(C)c3ccc(C#Cc4ccc(C(=O)O)cc4)cc32)c1 | 67
* CCc1ccc(C2=CCC(C)(C)c3ccc(C#Cc4ccc(C(=O)O)cc4)cc32)cc1 | 19

Can you share its Kd? I mean this compound: CC1(C)CC=C(c2ccc(O)cc2)c2cc(C#Cc3ccc(C(=O)O)cc3)ccc21
98

And for Cc1cc(C)cc(C2=CCC(C)(C)c3ccc(C#Cc4ccc(C(=O)O)cc4)cc32)c1 ?
408

Quick one: CC1(C)CC=C(c2ccc(F)cc2)c2cc(C#Cc3ccc(C(=O)O)cc3)ccc21
82

---

# target.system: Retinoic acid receptor gamma (Homo sapiens)
# Sequence (P13631 whole entry): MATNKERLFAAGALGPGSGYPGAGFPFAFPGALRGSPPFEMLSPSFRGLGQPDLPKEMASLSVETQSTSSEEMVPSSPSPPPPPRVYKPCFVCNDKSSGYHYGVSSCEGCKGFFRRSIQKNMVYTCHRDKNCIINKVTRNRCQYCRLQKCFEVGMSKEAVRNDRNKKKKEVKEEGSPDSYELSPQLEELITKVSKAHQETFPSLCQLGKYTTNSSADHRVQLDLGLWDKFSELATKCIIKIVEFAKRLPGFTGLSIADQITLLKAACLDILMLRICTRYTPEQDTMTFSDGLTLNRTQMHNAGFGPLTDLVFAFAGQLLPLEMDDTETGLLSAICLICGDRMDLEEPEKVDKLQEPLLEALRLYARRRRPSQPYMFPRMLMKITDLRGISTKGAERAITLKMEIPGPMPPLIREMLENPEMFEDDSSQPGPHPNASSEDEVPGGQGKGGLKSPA
experimental.endpoint: pKd
pKd field: float, defined as -log10 of concentration (mol/L).

* COc1ccc(C2=CCC(C)(C)c3ccc(C#Cc4ccc(C(=O)O)cc4)cc32)cc1 | 7.44
* CC1(C)CC=C(c2cccc(O)c2)c2cc(C#Cc3ccc(C(=O)O)cc3)ccc21 | 6.60
* CC(C)(C)c1ccc(C2=CCC(C)(C)c3ccc(C#Cc4ccc(C(=O)O)cc4)cc32)cc1 | 7.03

Report pKd for CC1(C)CC=C(c2ccc(Cl)cc2)c2cc(C#Cc3ccc(C(=O)O)cc3)ccc21 please.
7.57
